Provenance of the data: ChEMBL document CHEMBL5058577

- System: U2OS
- Protocol: Multiplex assay against U2OS
- Type: toxicity, cell-based
- Condition Info: human, 24 h, 10 µM, compound concentration 10 uM, replicate 2
Mark criterion met for Population Fragmented Nuclei (%) under 20%, criterion not met if at or over.

Compound	Class Assignment
CC1(COc2ccc3c(c2)ncn3-c2ccc3cccc(N4CCC(N)CC4)c3n2)COC1	criterion not met
Cc1ccc(-c2ccc(F)cc2COc2ccc(CCC(=O)O)cc2)cc1	criterion not met
C[C@H](NC(=O)c1c(C(F)F)nn(C)c1Oc1cccc(C(F)(F)F)c1)c1ccc(C(=O)O)cc1	criterion met
CN(C)c1ccnc2sc3c(=O)n(N4CCCCCC4)cnc3c12	criterion met
CC[C@H]1OC(=O)[C@H](C)[C@@H](O[C@H]2C[C@@](C)(OC)[C@@H](O)[C@H](C)O2)[C@H](C)[C@@H](O[C@@H]2O[C@H](C)C[C@H](N(C)C)[C@H]2O)[C@@]2(C)CC(C)=C(O2)[C@H](C)[C@@H](O)[C@]1(C)O	criterion not met
CSCC[C@H](NC=O)C(=O)N[C@@H](CC(C)C)C(=O)N[C@@H](Cc1ccccc1)C(=O)O	criterion met
Cc1ccc(C(C)(O)c2nc3ccccc3s2)c(C)c1 (stereo not given)	criterion met
N[C@@]1(C(=O)O)CO[C@H]2[C@H](C(=O)O)[C@H]21	criterion met
CCOc1c2c(c(OCC)c3ncccc13)CN(c1ccc(CS(=O)(=O)NC(=O)Cc3ccccc3OC)cc1C)C2=O	criterion met
CCCC(CCC)C(=O)O	criterion met
Cc1ccccc1C(=O)Nc1ccc(C(=O)N2CCCC(N(C)C)c3ccccc32)cc1.Cl (stereo not given)	criterion not met
COc1c(C)cc(NC(=O)c2nn(Cc3ccc(F)cc3)c3c2CN(C(=O)c2ccc[nH]2)C[C@]3(C)C(N)=O)cc1C	criterion met
CCCN1CCC[C@@H]2Cc3n[nH]cc3C[C@H]21.Cl [QUINPIROLE HYDROCHLORIDE]	criterion met
CN1CCN(c2nc3cc(C(F)(F)F)ccc3n3cccc23)CC1.O=C(O)/C=C\C(=O)O.O=C(O)/C=C\C(=O)O	criterion met
O=C(NCC(=O)N1CC[C@H](N[C@H]2CC[C@@](O)(c3ccc(-c4ncccn4)cn3)CC2)C1)c1cccc(C(F)(F)F)c1	criterion not met
CN1CCN2c3ncccc3Cc3ccccc3C2C1 (stereo not given)	criterion met
O=S(=O)(c1ccccc1)c1cnc2c(N3CCNCC3)cccc2c1 [INTEPIRDINE]	criterion met
CCNC1(C(N)=O)CCN(c2ncnc3c2nc(-c2ccccc2Cl)n3-c2ccc(Cl)cc2)CC1	criterion not met
Cc1ccc(/C(=C\CN2CCCC2)c2ccccn2)cc1	criterion met
CN(C)CCCc1cc(C(=O)Nc2ccc(-c3ccncc3)cc2)ccc1O.Cl.Cl	criterion not met
O=C(O)c1cc2ccccc2c(Cc2c(O)c(C(=O)O)cc3ccccc23)c1O	criterion met
COc1cc(NC(=O)CCN2CCC(OC(=O)Nc3ccccc3-c3ccccc3)CC2)c(Cl)cc1CNC[C@H](O)c1ccc(O)c2[nH]c(=O)ccc12	criterion not met
Cl.Clc1ccc2nsnc2c1NC1=NCCN1 [TIZANIDINE HYDROCHLORIDE]	criterion not met
O=C(O)Cc1ccccc1Nc1c(Cl)cccc1Cl	criterion met
CC(=O)O[C@H]1C(=O)[C@@]2(C)[C@H]([C@H](OC(=O)c3ccccc3)[C@]3(O)C[C@H](OC(=O)[C@H](O)[C@@H](NC(=O)c4ccccc4)c4ccccc4)C(C)=C1C3(C)C)[C@]1(OC(C)=O)CO[C@@H]1C[C@@H]2O	criterion not met
Cc1ccc(F)cc1C(=O)Nc1ccc(C(=O)N2Cc3cccn3Cc3ccccc32)c(Cl)c1	criterion met
c1cc(OCCCN2CCCCC2)ccc1CN1CCCCC1	criterion met
N#Cc1c(N)nc(SCc2csc(-c3ccc(Cl)cc3)n2)c(C#N)c1-c1ccc(OCCO)cc1	criterion not met
CSc1ccccc1N1CCN(CCCCCC(=O)NC2CCCc3ccccc32)CC1.Cl (stereo not given)	criterion met
Oc1c(CN2CCN(c3ccccn3)CC2)cc(Cl)c2cccnc12	criterion not met
CNC[C@H](O)c1ccc(O)c(O)c1 [EPINEPHRINE]	criterion not met
O=C1COc2nccc(-c3ccccc3F)c2CN1Cc1cc(C(F)(F)F)cc(C(F)(F)F)c1	criterion not met
Cc1nc2ccc(Oc3ccc(F)cc3)cc2c(=O)n1C[C@H]1CCCN(C(C)C)C1.Cl	criterion not met
CC(C)(C)c1ccc(S(=O)(=O)Nc2ccc(Cl)cc2C(=O)c2cc[n+]([O-])cc2)cc1	criterion not met

###

Population Healthy Nuclei (%) for assorted compounds
- Test system: U2OS
- Protocol: Multiplex assay against U2OS
- Type: toxicity, cell-based
- Condition Info: human, 12 h, 1 µM, compound concentration 1 uM, replicate 1
Property Name: Population Healthy Nuclei (%)

> print(dat)
                              record.smiles                  property.name  result
1  Cc1ccc(F)cc1C(=O)Nc1ccc(C(=O)N2Cc3cccn3Cc3ccccc32)c(Cl)c1  Population Healthy Nuclei (%)     55%
2  N#Cc1c(N)nc(SCc2csc(-c3ccc(Cl)cc3)n2)c(C#N)c1-c1ccc(OCCO)cc1  Population Healthy Nuclei (%)     65%
3  O=C(NCC(=O)N1CC[C@H](N[C@H]2CC[C@@](O)(c3ccc(-c4ncccn4)cn3)CC2)C1)c1cccc(C(F)(F)F)c1  Population Healthy Nuclei (%)     64%
4  N[C@@]1(C(=O)O)CO[C@H]2[C@H](C(=O)O)[C@H]21  Population Healthy Nuclei (%)     76%

###

- System: U2OS
- Protocol: Multiplex assay against U2OS
- Assay type: toxicity, cell-based
- Condition Info: human, 24 h, 1 µM, compound concentration 1 uM, replicate 2
Population Mitochondria Different-Phenotype (%) for assorted molecules
Property Name: Population Mitochondria Different-Phenotype (%)

Molecule	Recorded Number
O=C(O)c1cc2ccccc2c(Cc2c(O)c(C(=O)O)cc3ccccc23)c1O [PAMOIC ACID]	2
Cl.Clc1ccc2nsnc2c1NC1=NCCN1 [TIZANIDINE HYDROCHLORIDE]	4
C[C@H]1[C@H]2CC[C@H]3[C@@H]4CC=C5C[C@@H](N(C)C)CC[C@]5(C)[C@H]4CC[C@]23CN1C [CONESSINE]	5
Cc1ccc(/C(=C\CN2CCCC2)c2ccccn2)cc1 [TRIPROLIDINE]	6
O=C(NCCO)c1cccc(-c2cc(Nc3ccc(OC(F)(F)F)cc3)ncn2)c1	5
N[C@@]1(C(=O)O)CO[C@H]2[C@H](C(=O)O)[C@H]21 [LY-379268]	2
CC1(COc2ccc3c(c2)ncn3-c2ccc3cccc(N4CCC(N)CC4)c3n2)COC1 [CRENOLANIB]	67
CC[C@H]1OC(=O)[C@H](C)[C@@H](O[C@H]2C[C@@](C)(OC)[C@@H](O)[C@H](C)O2)[C@H](C)[C@@H](O[C@@H]2O[C@H](C)C[C@H](N(C)C)[C@H]2O)[C@@]2(C)CC(C)=C(O2)[C@H](C)[C@@H](O)[C@]1(C)O	14
CCOc1c2c(c(OCC)c3ncccc13)CN(c1ccc(CS(=O)(=O)NC(=O)Cc3ccccc3OC)cc1C)C2=O	4
COc1ccc2c(c1)C(C(=O)N(Cc1ccc(N(C)C)cc1)c1ccc(C(C)C)cc1)CCC2.Cl (stereo unspecified)	1
CSc1ccccc1N1CCN(CCCCCC(=O)NC2CCCc3ccccc32)CC1.Cl (stereo unspecified)	74
CCCN1CCC[C@@H]2Cc3n[nH]cc3C[C@H]21.Cl [QUINPIROLE HYDROCHLORIDE]	4
CCCC(CCC)C(=O)O [VALPROIC ACID]	2
Oc1c(CN2CCN(c3ccccn3)CC2)cc(Cl)c2cccnc12	3
COc1cc(C(=O)N(CCCc2ccccc2)Cc2ccc(CC(=O)O)cc2)cc(OC)c1C	2
CC(=O)NCCc1c(Cc2ccccc2)[nH]c2ccccc12 [LUZINDOLE]	1
CNC[C@H](O)c1ccc(O)c(O)c1 [EPINEPHRINE]	5
O=C(NCC(=O)N1CC[C@H](N[C@H]2CC[C@@](O)(c3ccc(-c4ncccn4)cn3)CC2)C1)c1cccc(C(F)(F)F)c1 [PF-4136309]	4
O=C1COc2nccc(-c3ccccc3F)c2CN1Cc1cc(C(F)(F)F)cc(C(F)(F)F)c1	7
C[C@@H]1C[C@H]2[C@@H]3CCC4=CC(=O)C=C[C@]4(C)[C@@]3(F)[C@@H](O)C[C@]2(C)[C@@]1(O)C(=O)CO [DEXAMETHASONE]	0
C[C@H](NC(=O)c1c(C(F)F)nn(C)c1Oc1cccc(C(F)(F)F)c1)c1ccc(C(=O)O)cc1 [PALUPIPRANT]	0
CC(C)(C)c1ccc(S(=O)(=O)Nc2ccc(Cl)cc2C(=O)c2cc[n+]([O-])cc2)cc1 [VERCIRNON]	4
Cc1ccccc1C(=O)Nc1ccc(C(=O)N2CCCC(N(C)C)c3ccccc32)cc1.Cl (stereo unspecified)	4
CN1CCN(c2nc3cc(C(F)(F)F)ccc3n3cccc23)CC1.O=C(O)/C=C\C(=O)O.O=C(O)/C=C\C(=O)O	4
CSCC[C@H](NC=O)C(=O)N[C@@H](CC(C)C)C(=O)N[C@@H](Cc1ccccc1)C(=O)O	0
O=S(=O)(c1ccccc1)c1cnc2c(N3CCNCC3)cccc2c1 [INTEPIRDINE]	3
